All values here come from ChEMBL document CHEMBL4406880.

- System: SF-539
- METHOD DESCRIPTION: Growth inhibition of human SF539 cells assessed as growth percentage at 10 uM incubated for 48 hrs by sulforhodamine B assay relative to control
- Type: functional
- PARTICULARS: SF-539, 48 h, read-out: Activity
EXPERIMENTAL ENDPOINT: growth at 10 µM (%)
Give the value, in units of %, as a plain number.

Some solved entries appear below for comparison.
In [3]: df
Out[3]:
                                   compound  units  result
0  CC1=C(C(=O)OCC(C)C)C(c2ccc3c(c2)OCO3)NC(=S)N1 (racemic)      %     109
1  CC1=C(C(=O)OC(C)C)C(c2ccc3c(c2)OCO3)NC(=S)N1 (racemic)      %    98.9
2  CC1=C(C(=O)c2ccccc2)C(c2ccc3c(c2)OCO3)NC(=O)N1 (racemic)      %    99.7
3  CC(=O)C1=C(C)Nc2nc3ccccc3n2C1c1ccc2c(c1)OCO2 (racemic)      %    99.7
4  O=C1C2=C(NC(=S)NC2c2ccc3c(c2)OCO3)c2ccccc21 (racemic)      %     105
5  CC(=O)N1C(=S)NC(C)=C(C(=O)OCC(C)C)C1c1ccc2c(c1)OCO2 (racemic)      %     101
6  COCCOC(=O)C1=C(C)NC(=S)N(C(C)=O)C1c1ccc2c(c1)OCO2 (racemic)      %    97.6
7  CC(=O)N1C(=S)NC(C)=C(C(=O)OC(C)C)C1c1ccc2c(c1)OCO2 (racemic)      %    98.2

Problem: Supply growth at 10 µM measured with SF-539 for CC(=O)N1C(=S)NC(C)=C(C(=O)OCc2ccccc2)C1c1ccc2c(c1)OCO2 (racemic) .
Solution: 84.2

Problem: Fill in: growth at 10 µM on SF-539, entry COCCOC(=O)C1=C(C)NC(=S)NC1c1ccc2c(c1)OCO2 (racemic)
Solution: 99.2

Problem: # return growth at 10 µM of CC1=C(C(=O)OCc2ccccc2)C(c2ccc3c(c2)OCO3)NC(=S)N1 (racemic) (system: SF-539)
Solution: 99.3

Problem: Provide the reported growth at 10 µM (system: SF-539) for O=C1NC2=C(C(=O)c3ccccc32)C(c2ccc3c(c2)OCO3)N1 (racemic)
Solution: 94.7

Problem: # lookup: SF-539 growth at 10 µM, key = CC1=C(C(=O)OCc2ccccc2)C(c2ccc3c(c2)OCO3)NC(=O)N1 (racemic)
Solution: 97.8

Problem: Tell me growth at 10 µM of CC1=C(C(=O)c2ccccc2)C(c2ccc3c(c2)OCO3)NC(=S)N1 (racemic) when tested on SF-539.
Solution: 36.4

Problem: Specify the recorded growth at 10 µM for CC(=O)C1=C(C)NC(=O)NC1c1ccc2c(c1)OCO2 (racemic) , system: SF-539.
Solution: 102

---

growth at 10 µM values by entry
- Tested on: RXF 393
- METHOD DESCRIPTION: Growth inhibition of human RXF393 cells assessed as growth percentage at 10 uM incubated for 48 hrs by sulforhodamine B assay relative to control
- Assay type: functional
- PARTICULARS: RXF 393, 48 h, read-out: Activity
Record the value in %, omitting the unit from your answer.

The cases that follow already have their growth at 10 µM on record.
>>> print(df.to_string())
                                   molecule  assayed_target  experimental_endpoint  units  result
0  CC1=C(C(=O)OCC(C)C)C(c2ccc3c(c2)OCO3)NC(=S)N1 (racemic)         RXF 393        growth at 10 µM      %     100
1  CC1(C)CC(=O)C2=C(C1)NC(=O)NC2c1ccc2c(c1)OCO2 (racemic)         RXF 393        growth at 10 µM      %     118

Problem: Tell me its growth at 10 µM given CC1=C(C(=O)OC(C)C)C(c2ccc3c(c2)OCO3)NC(=O)N1 (racemic) as the entry.
Solution: 113

Problem: Output growth at 10 µM of CC1=C(C(=O)OC(C)C)C(c2ccc3c(c2)OCO3)NC(=S)N1 (racemic)
Solution: 106

---

- System: UO-31
- METHOD DESCRIPTION: Growth inhibition of human UO31 cells assessed as growth percentage at 10 uM incubated for 48 hrs by sulforhodamine B assay relative to control
- Format: functional
- PARTICULARS: UO-31, 48 h, read-out: Activity
EXPERIMENTAL ENDPOINT: growth at 10 µM (%)
Give just the number in %; leave the unit off.

Known results for compounds:
In [3]: df
Out[3]:
                                   compound  result
0  CC1=C(C(=O)OC(C)C)C(c2ccc3c(c2)OCO3)NC(=O)N1 (racemic)    84.9
1  CC1=C(C(=O)OCC(C)C)C(c2ccc3c(c2)OCO3)NC(=O)N1 (racemic)    84.8
2  CC(=O)C1=C(C)NC(=S)NC1c1ccc2c(c1)OCO2 (racemic)      81

Problem: Query growth at 10 µM for COCCOC(=O)C1=C(C)NC(=O)NC1c1ccc2c(c1)OCO2 (racemic)
Solution: 87.3

---

- Test system: UO-31
- METHOD DESCRIPTION: Growth inhibition of human UO31 cells assessed as growth percentage at 10 uM incubated for 48 hrs by sulforhodamine B assay relative to control
- Type: functional
- PARTICULARS: UO-31, 48 h, read-out: Activity
# Lookup of reported growth at 10 µM keyed by entry
Please respond with the number in % and leave the unit unwritten.

Please review the following examples before continuing.
                                   molecule  result
0  O=C1NC2=C(C(=O)c3ccccc32)C(c2ccc3c(c2)OCO3)N1 (racemic)    85.4
1  O=C1C2=C(NC(=S)NC2c2ccc3c(c2)OCO3)c2ccccc21 (racemic)      77
2  CC1=C(C(=O)c2ccccc2)C(c2ccc3c(c2)OCO3)NC(=O)N1 (racemic)    80.6
3  CC1=C(C(=O)c2ccccc2)C(c2ccc3c(c2)OCO3)NC(=S)N1 (racemic)    55.7
4  CC(=O)C1=C(C)Nc2nc3ccccc3n2C1c1ccc2c(c1)OCO2 (racemic)    89.3
5  CC(=O)C1=C(C)NC(=O)NC1c1ccc2c(c1)OCO2 (racemic)    83.4
6  COCCOC(=O)C1=C(C)NC(=S)NC1c1ccc2c(c1)OCO2 (racemic)    87.8
7  COCCOC(=O)C1=C(C)NC(=S)N(C(C)=O)C1c1ccc2c(c1)OCO2 (racemic)      82

Problem: Item CC(=O)N1C(=S)NC(C)=C(C(=O)OCc2ccccc2)C1c1ccc2c(c1)OCO2 (racemic) : provide growth at 10 µM
Solution: 85.4

---

- Test system: M14
- METHOD DESCRIPTION: Growth inhibition of human M14 cells assessed as growth percentage at 10 uM incubated for 48 hrs by sulforhodamine B assay relative to control
- Format: functional
- PARTICULARS: M14, 48 h, read-out: Activity
EXPERIMENTAL ENDPOINT: growth at 10 µM (%)
I only need the number, in %, no unit after it.

Use these answered entries as a reference point.
In [3]: df
Out[3]:
                                   compound  assayed_target  result
0  CC1=C(C(=O)OCC(C)C)C(c2ccc3c(c2)OCO3)NC(=S)N1 (racemic)             M14     120
1  COCCOC(=O)C1=C(C)NC(=O)NC1c1ccc2c(c1)OCO2 (racemic)             M14     104

Proceed to the following item.
Problem: Identify the reported growth at 10 µM for the following entry. CC1=C(C(=O)OCC(C)C)C(c2ccc3c(c2)OCO3)NC(=O)N1 (racemic)
Solution: 105

---

- System: M14
- METHOD DESCRIPTION: Growth inhibition of human M14 cells assessed as growth percentage at 10 uM incubated for 48 hrs by sulforhodamine B assay relative to control
- Type: functional
- PARTICULARS: M14, 48 h, read-out: Activity
EXPERIMENTAL ENDPOINT: growth at 10 µM (%)
Entry rule: numbers only, all in %.

In [3]: df
Out[3]:
                                   compound  assayed_target  result
0  CC1=C(C(=O)OCc2ccccc2)C(c2ccc3c(c2)OCO3)NC(=S)N1 (racemic)             M14     102
1  CC(=O)N1C(=S)NC(C)=C(C(=O)OCC(C)C)C1c1ccc2c(c1)OCO2 (racemic)             M14    96.4
2  CC1=C(C(=O)c2ccccc2)C(c2ccc3c(c2)OCO3)NC(=O)N1 (racemic)             M14    99.8
3  O=C1NC2=C(C(=O)c3ccccc32)C(c2ccc3c(c2)OCO3)N1 (racemic)             M14     110
4  CC(=O)C1=C(C)NC(=S)NC1c1ccc2c(c1)OCO2 (racemic)             M14     107

Problem: Tell me measured growth at 10 µM for CC1=C(C(=O)c2ccccc2)C(c2ccc3c(c2)OCO3)NC(=S)N1 (racemic) please.
Solution: 34.6
